Where these numbers come from: ChEMBL document CHEMBL2321809

- System: Escherichia coli
- TEST_DESCRIPTION: Binding affinity to wild type Beta-lactamase SHV-1 in Escherichia coli DH10B assessed as melting temperature at 50 uM by circular dichroism analysis
ATTRIBUTE_MEASURED: Tm (°C)
Express your answer in °C, writing the number without its unit.

What Tm appears in the records for this compound with Escherichia coli? `N[C@@H](C(=O)N[C@@H](Cc1cccc(C(=O)O)c1)B(O)O)c1ccccc1` 61.4

Do the same for C[C@]1(Cn2ccnn2)[C@H](C(=O)O)N2C(=O)C[C@H]2S1(=O)=O [TAZOBACTAM] please 54.4

Do the same for `O=C(Cc1cccs1)NCB(O)O` please 55.1

Do the same for O=C(O)[C@H]1/C(=C/CO)O[C@@H]2CC(=O)N21 [CLAVULANIC ACID] please 55

Do the same for CC1(C)[C@H](C(=O)O)N2C(=O)C[C@H]2S1(=O)=O [SULBACTAM] please 54.4

====

- System: Escherichia coli
- TEST_DESCRIPTION: Binding affinity to Beta-lactamase SHV-1 K234R protein mutant in Escherichia coli DH10B assessed as change in secondary structure at 50 uM by circular dichroism analysis
The source made the active and inactive calls. The calls are words filed in the database; no cut-off is given here.
Tick one outcome: true (1) = active, false (0) = inactive

Worked cases, answers included:
>>> label_value("O=C(O)[C@H]1/C(=C/CO)O[C@@H]2CC(=O)N21 [CLAVULANIC ACID]")
"true (1)"
>>> label_value("C[C@]1(Cn2ccnn2)[C@H](C(=O)O)N2C(=O)C[C@H]2S1(=O)=O [TAZOBACTAM]")
"false (0)"
>>> label_value("CC1(C)[C@H](C(=O)O)N2C(=O)C[C@H]2S1(=O)=O [SULBACTAM]")
"false (0)"

Here is another compound to look at.
Hello, I am checking results. What call was entered for `O=C(Cc1cccs1)NCB(O)O` ? false (0)

====

- System: Escherichia coli
- TEST_DESCRIPTION: Binding affinity to Beta-lactamase SHV-1 K234R protein mutant in Escherichia coli DH10B assessed as melting temperature at 50 uM by circular dichroism analysis
Documented Tm across a set of compounds
Express your answer in °C, writing the number without its unit.

// below: answered compounds
>>> readout_number("N[C@@H](C(=O)N[C@@H](Cc1cccc(C(=O)O)c1)B(O)O)c1ccccc1")
54.8
>>> readout_number("O=C(O)[C@H]1/C(=C/CO)O[C@@H]2CC(=O)N21")
46.1
>>> readout_number("O=C(Cc1cccs1)NCB(O)O")
48.9

# input for lookup
Requested read-out: Tm. Entry: `C[C@]1(Cn2ccnn2)[C@H](C(=O)O)N2C(=O)C[C@H]2S1(=O)=O` 49
